- Tgt: UniProt:Q12809
- Protocol summary: Inhibition of hERG by patch clamp assay
pIC50: −log10 of the molar value.
Quantity: pIC50

# Input smiles, pIC50
records = [
    ("CCOc1ccc2c(C)cc(=O)oc2c1CNC(=O)/C=C/c1ccc(OC)cc1", "< 4.40"),
]

Now, please, on to the next molecule.
Lab book: pIC50 of `COc1cc(CC(=O)OCc2c(OC(C)C)ccc3c(C)c(Cc4ccccc4)c(=O)oc23)cc(OC)c1OC` noted as < 4.40

----------
- System: A2780/Taxol
- Protocol summary: Reversal of multi-drug resistance in human A2780/Taxol cells incubated for 48 hrs by MTT assay
- Type: functional, cell-based
Records here are stratified by IC50; strata: low: < 80 nM; middle: ≥ 80 nM and < 300 nM; high: ≥ 300 nM

The following compounds have reported results that may help.
# Input smiles, Class assignment
rows = [
    ("Cc1c(Cc2ccccc2)c(=O)oc2c(COC(=O)Cc3ccccc3)c(OC(C)C)ccc12", "low"),
    ("CCOc1ccc2c(C)c(Cc3ccccc3)c(=O)oc2c1COC(=O)/C=C/c1ccc(OC)cc1", "middle"),
    ("Cc1c(Cc2ccccc2)c(=O)oc2c(COC(=O)/C=C/c3ccccc3)c(OC(C)C)ccc12", "middle"),
]

input: Bin this entry: `COc1ccc(Cc2c(C)c3ccc(OC(C)C)c(COC(=O)/C=C/c4ccccc4)c3oc2=O)cc1`
output: high

input: Bin this entry: `Cc1c(Cc2ccc(C#N)cc2)c(=O)oc2c(COC(=O)/C=C/c3ccccc3)c(OC(C)C)ccc12`
output: middle

input: Bin this entry: `COc1cccc(Cc2c(C)c3ccc(OC(C)C)c(COC(=O)Cc4cc(OC)c(OC)c(OC)c4)c3oc2=O)c1`
output: low

input: Bin this entry: `CCOc1ccc2c(C)c(Cc3ccc(F)cc3)c(=O)oc2c1COC(=O)/C=C/c1ccc(OC)cc1`
output: high

input: Bin this entry: `COc1ccccc1Cc1c(C)c2ccc(OC(C)C)c(COC(=O)Cc3cc(OC)c(OC)c(OC)c3)c2oc1=O`
output: low

input: Bin this entry: `Cc1cc(=O)oc2c(C(=O)Nc3ccccc3)c(OC(C)C)ccc12`
output: high

input: Bin this entry: `COc1cc(CC(=O)NCc2c(OC(C)C)ccc3c(C)cc(=O)oc23)cc(OC)c1OC`
output: high

input: Bin this entry: `COc1cc(CC(=O)OCc2c(OC(C)C)ccc3c(C)c(C)c(=O)oc23)cc(OC)c1OC`
output: low

----------
- Tgt: hERG (KCNH2) (Homo sapiens, UniProt Q12809)
- Sequence (Q12809 whole entry): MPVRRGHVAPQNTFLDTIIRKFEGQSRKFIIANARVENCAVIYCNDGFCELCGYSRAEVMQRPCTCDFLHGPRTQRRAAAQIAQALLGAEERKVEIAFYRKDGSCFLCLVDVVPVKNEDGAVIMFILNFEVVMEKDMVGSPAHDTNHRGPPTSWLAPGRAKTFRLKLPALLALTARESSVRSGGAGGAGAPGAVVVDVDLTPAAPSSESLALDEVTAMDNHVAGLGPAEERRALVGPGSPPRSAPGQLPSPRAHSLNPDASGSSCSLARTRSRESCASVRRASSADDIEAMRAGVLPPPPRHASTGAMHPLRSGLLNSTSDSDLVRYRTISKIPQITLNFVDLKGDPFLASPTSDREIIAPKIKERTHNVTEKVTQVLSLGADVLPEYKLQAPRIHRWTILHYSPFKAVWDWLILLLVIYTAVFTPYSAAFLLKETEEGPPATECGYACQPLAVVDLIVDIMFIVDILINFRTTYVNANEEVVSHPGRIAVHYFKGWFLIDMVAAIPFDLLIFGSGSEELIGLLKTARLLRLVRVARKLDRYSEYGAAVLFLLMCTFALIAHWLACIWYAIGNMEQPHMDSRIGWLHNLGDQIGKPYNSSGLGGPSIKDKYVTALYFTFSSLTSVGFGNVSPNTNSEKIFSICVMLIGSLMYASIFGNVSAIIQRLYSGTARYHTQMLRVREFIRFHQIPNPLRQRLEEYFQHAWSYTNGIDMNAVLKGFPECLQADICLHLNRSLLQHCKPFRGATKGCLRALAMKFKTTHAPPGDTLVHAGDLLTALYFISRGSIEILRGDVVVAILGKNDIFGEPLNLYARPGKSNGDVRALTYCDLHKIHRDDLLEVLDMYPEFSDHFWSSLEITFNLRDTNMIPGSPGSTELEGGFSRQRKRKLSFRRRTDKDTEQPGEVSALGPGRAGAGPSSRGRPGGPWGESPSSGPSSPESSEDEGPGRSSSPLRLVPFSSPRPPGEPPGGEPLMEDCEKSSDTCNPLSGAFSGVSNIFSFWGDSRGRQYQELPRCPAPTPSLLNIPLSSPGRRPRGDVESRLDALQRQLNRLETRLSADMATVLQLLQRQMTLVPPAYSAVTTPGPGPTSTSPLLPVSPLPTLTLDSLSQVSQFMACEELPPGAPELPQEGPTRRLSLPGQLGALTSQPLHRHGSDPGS
- Protocol summary: Inhibition of hERG at 3 uM by patch clamp assay relative to control
- Assay type: toxicity
Quantity: inhibition at 3 µM (%)
Just the number please, in %, no unit attached.

Lab book: inhibition at 3 µM of COc1cc(N)c(Cl)cc1C(=O)NC1CCN(CCCOc2ccc(F)cc2)CC1OC (stereo unspecified) [CISAPRIDE] noted as 98

----------
- Protocol summary: Stability in water assessed as parent compound remaining measured immediately by LC-MS/MS analysis
- Format: physicochemical
- Conditions: read-out: Stability
Quantity: remaining at 0 min (%)
Just the number please, in %, no unit attached.

Lab book: remaining at 0 min of `COc1cc(CC(=O)OCc2c(OC(C)C)ccc3c(C)c(Cc4ccccc4)c(=O)oc23)cc(OC)c1OC` noted as 100

// data source = ChEMBL document CHEMBL5385904
